Origin of the recorded values: patent US8329711B2

tested-system: Wee1 kinase (Homo sapiens, UniProt P30291)
Sequence (P30291 whole entry): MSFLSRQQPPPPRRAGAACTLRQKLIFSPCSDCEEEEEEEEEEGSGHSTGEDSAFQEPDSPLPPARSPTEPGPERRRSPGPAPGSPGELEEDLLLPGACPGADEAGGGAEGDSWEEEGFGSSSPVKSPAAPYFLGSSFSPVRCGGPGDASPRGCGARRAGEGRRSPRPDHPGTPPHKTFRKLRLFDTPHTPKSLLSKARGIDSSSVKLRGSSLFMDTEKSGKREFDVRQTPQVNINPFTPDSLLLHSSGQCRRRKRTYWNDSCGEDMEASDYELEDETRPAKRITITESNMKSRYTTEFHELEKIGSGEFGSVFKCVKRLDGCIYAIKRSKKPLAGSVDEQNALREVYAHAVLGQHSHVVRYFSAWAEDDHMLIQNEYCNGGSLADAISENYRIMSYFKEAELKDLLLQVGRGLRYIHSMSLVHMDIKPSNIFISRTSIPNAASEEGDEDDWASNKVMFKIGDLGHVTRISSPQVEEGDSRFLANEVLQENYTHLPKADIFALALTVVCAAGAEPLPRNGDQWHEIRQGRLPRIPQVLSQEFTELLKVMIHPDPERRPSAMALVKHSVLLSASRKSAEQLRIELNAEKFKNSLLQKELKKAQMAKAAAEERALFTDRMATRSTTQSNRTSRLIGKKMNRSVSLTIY
assay-details: Wee1 kinase-inhibitory effect (33P-ATP filter assay with GST-tagged Wee1)
details: purified GST-Wee1, Poly(Lys,Tyr) substrate, 10 μM ATP, 30° C. for 30 minutes; read-out: Weel-Inhibitory Effect (IC50)
Would you kindly list IC50 for each of these compounds?
Write the answer as a number in nM, unit excluded.

Request body: readout IC50, system Wee1 kinase (Homo sapiens, UniProt P30291), query C=CCn1c(=O)c2cnc(Nc3ccc(N4CC[C@@H](N(C)C)C4)cc3)nc2n1-c1cccc(-n2ccccc2=O)n1 . Return the value. 18

Request body: readout IC50, system Wee1 kinase (Homo sapiens, UniProt P30291), query C=CCn1c(=O)c2cnc(Nc3ccc(N4CCN(C)CC4)cc3)nc2n1-c1cccc(-n2ccccc2=O)n1 . Return the value. 16

Request body: readout IC50, system Wee1 kinase (Homo sapiens, UniProt P30291), query C=CCn1c(=O)c2cnc(Nc3ccc(N4CCN(C)CC4)cc3)nc2n1-c1cccc(-n2cc(F)ccc2=O)n1 . Return the value. 18

Request body: readout IC50, system Wee1 kinase (Homo sapiens, UniProt P30291), query C=CCn1c(=O)c2cnc(Nc3ccc(OC)c(CO)c3)nc2n1-c1cccc(-n2ccccc2=O)n1 . Return the value. 6.5

Request body: readout IC50, system Wee1 kinase (Homo sapiens, UniProt P30291), query C=CCn1c(=O)c2cnc(Nc3ccc(C4CCN(C)CC4)cc3)nc2n1-c1cccc(-n2ccccc2=O)c1 . Return the value. 24

Request body: readout IC50, system Wee1 kinase (Homo sapiens, UniProt P30291), query C=CCn1c(=O)c2cnc(Nc3cccc(C4CCN(C)CC4)c3)nc2n1-c1cccc(-n2ccccc2=O)n1 . Return the value. 6.9
